- Test system: SW1710 (Bladder Carcinoma);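 also: after 72 h of two-drug dosing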
- procedure.details: Bliss excess, mean over the matrix (fraction); higher = more synergy
Binning scheme for Bliss excess: I = under -0.04, II = from -0.04 up to -0.005, III = -0.005 and over

In: Into which bin does this compound go? COc1nnc2ccc(N3CCC(c4ccc(OCCN5CCN(C)C(=O)[C@H]5C)cc4)CC3)nn12 [AZD5153] + Cn1cnc2c(F)c(Nc3ccc(Br)cc3Cl)c(C(=O)NOCCO)cc21 [Selumetinib] (first compound max 1 µM, 7x7, partner max 10 µM)
Out: I

In: Looking at CC(=O)c1c(C)c2cnc(Nc3ccc(N4CCNCC4)cn3)nc2n(C2CCCC2)c1=O [Palbociclib] + CC1(C)CCC(CN2CCN(c3ccc(C(=O)NS(=O)(=O)c4ccc(NCC5CCOCC5)c([N+](=O)[O-])c4)c(Oc4cnc5[nH]ccc5c4)c3)CC2)=C(c2ccc(Cl)cc2)C1 [Venetoclax] (first compound max 10 µM, 7x7, partner max 1 µM) , which class would you pick?
Out: III
